Record form. Attribute: IC50. Fill in for each entry.
# tgt: Integrin alpha-IIb/beta-3 (Homo sapiens, UniProt P05106+P08514)
# Sequence (P05106 27-788 limits assumed): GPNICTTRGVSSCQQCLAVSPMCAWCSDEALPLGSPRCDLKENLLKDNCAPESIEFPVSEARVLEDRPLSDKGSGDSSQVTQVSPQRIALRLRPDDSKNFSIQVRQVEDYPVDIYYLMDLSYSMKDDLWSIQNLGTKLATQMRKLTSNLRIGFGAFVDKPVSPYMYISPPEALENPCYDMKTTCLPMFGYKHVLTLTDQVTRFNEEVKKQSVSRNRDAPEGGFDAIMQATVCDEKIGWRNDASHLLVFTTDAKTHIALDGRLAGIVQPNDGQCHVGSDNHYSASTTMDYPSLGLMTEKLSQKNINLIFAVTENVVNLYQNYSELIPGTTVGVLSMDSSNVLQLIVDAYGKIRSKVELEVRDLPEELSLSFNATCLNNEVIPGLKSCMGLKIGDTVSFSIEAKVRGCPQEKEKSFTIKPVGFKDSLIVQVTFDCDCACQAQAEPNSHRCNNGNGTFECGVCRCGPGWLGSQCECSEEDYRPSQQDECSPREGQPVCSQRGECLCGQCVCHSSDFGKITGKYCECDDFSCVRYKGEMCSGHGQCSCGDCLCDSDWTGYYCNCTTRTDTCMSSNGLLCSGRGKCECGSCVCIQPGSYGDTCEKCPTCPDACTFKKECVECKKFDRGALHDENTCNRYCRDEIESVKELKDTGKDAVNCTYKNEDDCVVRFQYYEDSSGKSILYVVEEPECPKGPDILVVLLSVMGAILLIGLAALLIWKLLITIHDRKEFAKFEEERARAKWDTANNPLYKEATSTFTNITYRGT
# Sequence (P08514 32-887 limits assumed): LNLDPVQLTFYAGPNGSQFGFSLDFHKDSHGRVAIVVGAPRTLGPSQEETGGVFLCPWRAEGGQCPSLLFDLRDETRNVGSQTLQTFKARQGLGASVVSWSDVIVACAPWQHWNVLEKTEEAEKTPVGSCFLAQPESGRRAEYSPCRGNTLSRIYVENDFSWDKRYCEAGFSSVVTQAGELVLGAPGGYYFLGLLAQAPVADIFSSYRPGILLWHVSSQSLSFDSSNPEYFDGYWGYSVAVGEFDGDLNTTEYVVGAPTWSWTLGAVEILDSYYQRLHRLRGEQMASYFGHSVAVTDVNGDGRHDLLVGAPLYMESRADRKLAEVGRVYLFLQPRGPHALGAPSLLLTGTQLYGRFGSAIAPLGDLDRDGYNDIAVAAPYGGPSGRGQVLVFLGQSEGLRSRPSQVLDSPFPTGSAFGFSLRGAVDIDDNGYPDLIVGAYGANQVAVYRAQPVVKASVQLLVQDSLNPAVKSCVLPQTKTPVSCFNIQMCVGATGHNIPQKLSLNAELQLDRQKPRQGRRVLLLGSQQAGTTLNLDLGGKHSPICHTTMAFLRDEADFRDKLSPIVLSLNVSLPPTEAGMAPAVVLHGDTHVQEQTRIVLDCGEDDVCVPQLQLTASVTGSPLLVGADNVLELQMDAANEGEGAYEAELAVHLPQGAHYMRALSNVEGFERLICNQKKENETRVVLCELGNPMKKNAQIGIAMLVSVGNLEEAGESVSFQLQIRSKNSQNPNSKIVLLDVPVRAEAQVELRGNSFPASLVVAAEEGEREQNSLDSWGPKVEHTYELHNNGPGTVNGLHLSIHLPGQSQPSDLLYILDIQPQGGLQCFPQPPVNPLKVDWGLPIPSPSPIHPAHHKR
# Sequence (P08514 891-1039 limits assumed): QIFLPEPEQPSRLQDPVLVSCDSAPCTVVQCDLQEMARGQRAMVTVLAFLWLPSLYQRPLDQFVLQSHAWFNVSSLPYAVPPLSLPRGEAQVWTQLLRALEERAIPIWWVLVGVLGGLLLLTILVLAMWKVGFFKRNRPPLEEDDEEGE
# assay.explanation: The compound was tested for the inhibition of fibrinogen receptor
# Assay type: protein-complex assay
Respond numerically; units are nM and should not be typed.

INPUT: Endpoint output: IC50 of N=C(N)NCCC[C@@H]1NC(=O)CNC(=O)C[S+]([O-])C[C@@H](C(=O)O)NC(=O)[C@H](CC(=O)O)NC(=O)CNC1=O (stereo in doubt; 66B) . Value?
OUTPUT: 25

INPUT: Endpoint output: IC50 of N=C(N)NCCC[C@@H]1NC(=O)CNC(=O)C(c2ccc(C(F)(F)F)cc2)SC[C@@H](C(=O)O)NC(=O)[C@H](CC(=O)O)NC(=O)CNC1=O (stereo in doubt; 22B) . Value?
OUTPUT: 4

INPUT: Endpoint output: IC50 of N=C(N)NCCC[C@@H]1NC(=O)CNC(=O)C(c2cccc(C(F)(F)F)c2)SC[C@@H](C(=O)O)NC(=O)[C@H](CC(=O)O)NC(=O)CNC1=O (stereo in doubt; 24A) . Value?
OUTPUT: 35

INPUT: Endpoint output: IC50 of "CC[C@H](C)[C@@H]1NC(=O)CSC[C@@H](C(=O)O)NC(=O)[C@H](CC(=O)O)NC(=O)CNC(=O)[C@H](CCCN=C(N)N)NC1=O" . Value?
OUTPUT: 6
